Task for the reader: assign each of the following binders its reported Kd.
SUBJECT_OF_TEST: T1, recombinant human TFPI (tissue factor pathway inhibitor) (human, UniProt P10646 29-304)
T1 construct: Biotin-conjugated in the yeast FACS; also called hTFPI; TFPI antigen
ASSAY_DETAILS: SPR, Biacore T-200; IgG captured on protein A (CM5), TFPI as analyte
Your answer should be a plain number; it is taken to be in nM.

Entry clone 1023 (antibody, V domains shown, scFv on yeast at selection; human IgG4/kappa IgG as purified) VH: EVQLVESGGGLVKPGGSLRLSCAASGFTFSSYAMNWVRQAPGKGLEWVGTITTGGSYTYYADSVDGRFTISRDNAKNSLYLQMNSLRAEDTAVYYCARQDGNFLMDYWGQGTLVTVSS VL: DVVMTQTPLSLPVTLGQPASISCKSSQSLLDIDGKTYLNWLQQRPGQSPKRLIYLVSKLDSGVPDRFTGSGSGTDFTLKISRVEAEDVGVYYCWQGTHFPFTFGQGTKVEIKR , Kd reported as 0.0301

Entry clone 3241 (antibody, V domains shown, scFv on yeast at selection; human IgG4/kappa IgG as purified; also called No. 3241 antibody) VH: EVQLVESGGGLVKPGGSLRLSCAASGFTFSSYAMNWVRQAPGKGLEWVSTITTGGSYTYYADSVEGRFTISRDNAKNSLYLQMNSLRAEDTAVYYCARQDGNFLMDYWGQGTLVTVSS VL: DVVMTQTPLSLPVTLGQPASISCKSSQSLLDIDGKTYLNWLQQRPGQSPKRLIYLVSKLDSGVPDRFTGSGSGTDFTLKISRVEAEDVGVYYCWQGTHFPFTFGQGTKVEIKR , Kd reported as 0.074

Entry clone 1202 (antibody, V domains shown, scFv on yeast at selection; human IgG4/kappa IgG as purified; also called No. 1202 antibody) VH: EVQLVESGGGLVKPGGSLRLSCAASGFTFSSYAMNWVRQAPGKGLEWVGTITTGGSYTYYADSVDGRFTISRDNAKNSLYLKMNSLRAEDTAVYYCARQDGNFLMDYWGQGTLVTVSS VL: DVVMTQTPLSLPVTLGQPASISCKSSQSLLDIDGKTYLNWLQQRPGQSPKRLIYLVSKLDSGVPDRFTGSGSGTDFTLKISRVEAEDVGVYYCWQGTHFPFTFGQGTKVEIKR , Kd reported as 0.00947

Entry clone 12 (antibody, V domains shown, human IgG4/kappa IgG as purified; also called No. 12 antibody) VH: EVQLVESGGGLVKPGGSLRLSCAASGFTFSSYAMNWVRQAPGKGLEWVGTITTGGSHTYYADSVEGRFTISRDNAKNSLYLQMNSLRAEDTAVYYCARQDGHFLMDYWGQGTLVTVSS VL: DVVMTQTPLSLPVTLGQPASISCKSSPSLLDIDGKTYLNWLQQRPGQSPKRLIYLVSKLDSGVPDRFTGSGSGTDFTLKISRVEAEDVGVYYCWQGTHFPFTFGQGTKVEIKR , Kd reported as 0.00819
